Reference source: the NIST ThermoML archive (doi:10.1021/je300696c)

# refractive index per record follows
runDescription: refractive index (Na D-line) (dimensionless)
conditionDescription: 293.15 K; 101.33 kPa; Liquid; Standard Abbe refractometry
Answer with a number only.

| itemSmiles | numericValue |
| --- | --- |
| CCCO | 1.3851 |
| CC(C)(C)O | 1.3878 |
| CO | 1.3285 |

Q: Which measured refractive index value corresponds to CCCCCCCO ?
Result: 1.4227

Q: Which measured refractive index value corresponds to CCO ?
Result: 1.3609

* * *

conditionDescription: 293.15 K; 101.33 kPa; Liquid; Vibrating tube method
quantityMeasured: mass density (kg/m3)
Use kg/m3 as the unit, but write only the number.

Q: Which measured mass density value corresponds to CCCCCCCO ?
Result: 821.8

Q: Which measured mass density value corresponds to CCCO ?
Result: 803.4

Q: Which measured mass density value corresponds to CC(C)(C)O ?
Result: 788.5

Q: Which measured mass density value corresponds to CO ?
Result: 791.2

Q: Which measured mass density value corresponds to CCO ?
Result: 788.9
